# Test system: Dicots
# assay_procedure: Herbicidal activity, postemergence, dicot weeds (Table II)
# Type: in vivo
# measurement_setup: post-emergence, 336 h, 2 lb./A., about 2 weeks, read-out: % control (percent of plants killed)
readout_kind: pest or weed control at 2241.7 g/ha (%)
Give the quantity in %, number only.

The cases that follow already have their pest or weed control at 2241.7 g/ha on record.
[[record]]
compound = "O=C(O)COc1cc(Oc2ccc(C(F)(F)F)cc2Cl)ccc1[N+](=O)[O-]"
readout_kind = "pest or weed control at 2241.7 g/ha"
value = 100

[[record]]
compound = "CCOC(=O)C(C)Oc1cc(Oc2ccc(C(F)(F)F)cc2Cl)ccc1[N+](=O)[O-] (centres unmarked)"
readout_kind = "pest or weed control at 2241.7 g/ha"
value = 100


Which value of pest or weed control at 2241.7 g/ha has been reported for CCNc1cc(Oc2ccc(C(F)(F)F)cc2Cl)ccc1[N+](=O)[O-] in the records?
97

Next entry: CNC(=O)Nc1cc(Oc2ccc(C(F)(F)F)cc2Cl)ccc1[N+](=O)[O-]
10

Another compound: CCN(C(=O)NC)c1cc(Oc2ccc(C(F)(F)F)cc2Cl)ccc1[N+](=O)[O-]
96

----------
# System: Dicots
# assay_procedure: Herbicidal activity, postemergence, dicot weeds (Table II)
# Type: in vivo
# measurement_setup: post-emergence, 336 h, 2 lb./A., about 2 weeks, read-out: % control (percent of plants killed)
readout_kind: pest or weed control at 2241.7 g/ha (%)
The reply should contain only the number, in %.

Solved cases (2 shown):
[[record]]
molecule = "C#CCCOc1cc(Oc2ccc(C(F)(F)F)cc2Cl)ccc1[N+](=O)[O-] [Example 29]"
system = "Dicots"
readout_unit = "%"
value = 100

[[record]]
molecule = "CC(=O)CCOc1cc(Oc2ccc(C(F)(F)F)cc2Cl)ccc1[N+](=O)[O-] [Example 31]"
system = "Dicots"
readout_unit = "%"
value = 100


Give pest or weed control at 2241.7 g/ha (Dicots) of the following molecule: O=[N+]([O-])c1ccc(Oc2ccc(C(F)(F)F)cc2Cl)cc1NCCO [Example 22]
100

Ok, now O=[N+]([O-])c1ccc(Oc2ccc(C(F)(F)F)cc2Cl)cc1OCC(F)(F)F [Example 11]
100

----------
# System: Monocots
# assay_procedure: Herbicidal activity, postemergence, monocot weeds (Table II)
# Type: in vivo
# measurement_setup: post-emergence, 336 h, 10 lb./A., about 2 weeks, read-out: % control (percent of plants killed)
Documented pest or weed control at 11208.5 g/ha across a set of molecules
Give a bare numeral; the unit % is implied.

Below: 2 molecules and their reported pest or weed control at 11208.5 g/ha.
[[record]]
molecule = "CCCCOc1cc(Oc2ccc(C(F)(F)F)cc2Cl)ccc1[N+](=O)[O-] [Example 6]"
value = 97

[[record]]
molecule = "CCOc1cc(Oc2ccc(C(F)(F)F)cc2C#N)ccc1[N+](=O)[O-] [Example 7]"
value = 100


Quick one: pest or weed control at 11208.5 g/ha of CCOc1cc(Oc2ccc(C(F)(F)F)cc2)ccc1[N+](=O)[O-] [Example 1] ?
82

----------
Let's look at some molecules and their measured pest or weed control at 4483.4 g/ha.
# Tested on: Dicots
# assay_procedure: Herbicidal activity, preemergence, dicot weeds (Table II)
# Type: in vivo
# measurement_setup: pre-emergence, 336 h, 4 lb./A., about 2 weeks, read-out: % control (percent of plants killed)
All answers are understood in %, so give the number only.

// solved cases for pest or weed control at 4483.4 g/ha follow
[[record]]
molecule = "CN(C)CCOc1cc(Oc2ccc(C(F)(F)F)cc2Cl)ccc1[N+](=O)[O-]"
value = 84

[[record]]
molecule = "O=C(O)COc1cc(Oc2ccc(C(F)(F)F)cc2Cl)ccc1[N+](=O)[O-]"
value = 64


Fill in: pest or weed control at 4483.4 g/ha of COc1cc(Oc2ccc(C(F)(F)F)cc2Cl)ccc1[N+](=O)[O-] is ___
80

Would you kindly repeat that for CCSC(=O)N(C(=O)SCC)c1cc(Oc2ccc(C(F)(F)F)cc2Cl)ccc1[N+](=O)[O-] ?
20

// repeat for O=[N+]([O-])c1ccc(Oc2ccc(C(F)(F)F)cc2Cl)cc1OCC(F)(F)F and report
98

Same thing, different molecule: CCOc1cc(Oc2ccc(C(F)(F)F)cc2)ccc1[N+](=O)[O-]
45

Please give the result for C#CCCOc1cc(Oc2ccc(C(F)(F)F)cc2Cl)ccc1[N+](=O)[O-] too.
73

Then what about the molecule CC#CCCOc1cc(Oc2ccc(C(F)(F)F)cc2Cl)ccc1[N+](=O)[O-] ?
78

Ok, now CNC(=O)C(C)Oc1cc(Oc2ccc(C(F)(F)F)cc2Cl)ccc1[N+](=O)[O-] (stereo not shown)
67

Note, next up: CC(C)Oc1cc(Oc2ccc(C(F)(F)F)cc2Cl)ccc1[N+](=O)[O-]
100

----------
# System: Dicots
# assay_procedure: Herbicidal activity, postemergence, dicot weeds (Table II)
# Type: in vivo
# measurement_setup: post-emergence, 336 h, 2 lb./A., about 2 weeks, read-out: % control (percent of plants killed)
readout_kind: pest or weed control at 2241.7 g/ha (%)
Quick note: give the figure in %, leave out the unit.

Illustrative cases are given below, each with its answer.
[[record]]
molecule = "O=[N+]([O-])c1ccc(Oc2ccc(C(F)(F)F)cc2Cl)cc1OCC1CO1 (centres unmarked)"
value = 58

[[record]]
molecule = "CC(=O)C(C)Oc1cc(Oc2ccc(C(F)(F)F)cc2Cl)ccc1[N+](=O)[O-] (centres unmarked)"
value = 100

[[record]]
molecule = "CS(=O)(=O)CCOc1cc(Oc2ccc(C(F)(F)F)cc2Cl)ccc1[N+](=O)[O-]"
value = 88


Look at this molecule and give its reported pest or weed control at 2241.7 g/ha. CCOCCOc1cc(Oc2ccc(C(F)(F)F)cc2Cl)ccc1[N+](=O)[O-]
94

Do the same for Nc1cc(Oc2ccc(C(F)(F)F)cc2Cl)ccc1[N+](=O)[O-] please
100

Do the same for O=[N+]([O-])c1ccc(Oc2ccc(C(F)(F)F)cc2Cl)cc1OCCO please
94

----------
# System: Dicots
# assay_procedure: Herbicidal activity, preemergence, dicot weeds (Table II)
# Assay type: in vivo
# measurement_setup: pre-emergence, 336 h, 4 lb./A., about 2 weeks, read-out: % control (percent of plants killed)
readout_kind: pest or weed control at 4483.4 g/ha (%)
The response must be a number in % with no trailing unit.

Some molecules with known pest or weed control at 4483.4 g/ha results, for comparison:
[[record]]
molecule = "CCN(CC)c1cc(Oc2ccc(C(F)(F)F)cc2Cl)ccc1[N+](=O)[O-]"
readout_unit = "%"
value = 99

[[record]]
molecule = "CCOC(=O)C(C)Oc1cc(Oc2ccc(C(F)(F)F)cc2Cl)ccc1[N+](=O)[O-] (stereo not shown)"
readout_unit = "%"
value = 100

[[record]]
molecule = "CNC(=O)Nc1cc(Oc2ccc(C(F)(F)F)cc2Cl)ccc1[N+](=O)[O-]"
readout_unit = "%"
value = 96


Consider the record given below.
Any idea what its pest or weed control at 4483.4 g/ha is? The molecule is O=[N+]([O-])c1ccc(Oc2ccc(C(F)(F)F)cc2Cl)cc1OCC(O)CO (stereo not shown)
99

----------
# System: Dicots
# assay_procedure: Herbicidal activity, postemergence, dicot weeds (Table II)
# Assay type: in vivo
# measurement_setup: post-emergence, 336 h, 4 lb./A., about 2 weeks, read-out: % control (percent of plants killed)
readout_kind: pest or weed control at 4483.4 g/ha
Value and unit, in that order.

Study these solved cases before continuing.
[[record]]
molecule = "CN(CCO)c1cc(Oc2ccc(C(F)(F)F)cc2Cl)ccc1[N+](=O)[O-] [Example 43]"
value = "47%"

[[record]]
molecule = "CCCOc1cc(Oc2ccc(C(F)(F)F)cc2C#N)ccc1[N+](=O)[O-] [Example 8]"
value = "80%"

[[record]]
molecule = "C#CC(C)Oc1cc(Oc2ccc(C(F)(F)F)cc2Cl)ccc1[N+](=O)[O-] (stereo not drawn) [Example 30]"
value = "100%"


// lookup pest or weed control at 4483.4 g/ha for CC#CCCOc1cc(Oc2ccc(C(F)(F)F)cc2Cl)ccc1[N+](=O)[O-] [Example 14]
94%

Thanks! And CC(=O)C(C)Oc1cc(Oc2ccc(C(F)(F)F)cc2Cl)ccc1[N+](=O)[O-] (stereo not drawn) [Example 32] ?
100%

Now the molecule CCOC(=O)COc1cc(Oc2ccc(C(F)(F)F)cc2Cl)ccc1[N+](=O)[O-] [Example 24]
99%

Follow-up entry: CN(C)CCOc1cc(Oc2ccc(C(F)(F)F)cc2Cl)ccc1[N+](=O)[O-] [Example 17]
89%

What do we get for O=[N+]([O-])c1ccc(Oc2ccc(C(F)(F)F)cc2Cl)cc1OCC(O)CO (stereo not drawn) [Example 39] ?
98%

Reference source for all entries: patent USRE31731E
